Where these numbers come from: ChEMBL document CHEMBL6134902

Task for the reader: assign each of the following molecules its reported chromatographic logD.
# assay_notes: Lipophilicity, LogD of compound at pH 7.4 by chromatography
# Format: physicochemical
# condition_description: buffer
Reply with just the number.

So what does the record say about chromatographic logD for COc1cc(-c2ccc3nc4c(c(N)c3c2)CCCC4)ccn1 ? 3.69

So what does the record say about chromatographic logD for Nc1c2c(nc3ccc(-c4cncnc4)cc13)CCCC2 ? 2.73

So what does the record say about chromatographic logD for CN(C)c1cccc(-c2ccc3nc4c(c(N)c3c2)CCCC4)c1 ? 4.5

So what does the record say about chromatographic logD for COc1ncc(-c2ccc3nc4c(c(N)c3c2)CCCC4)cn1 ? 2.94

So what does the record say about chromatographic logD for Cc1csc(-c2ccc3nc4c(c(N)c3c2)CCCC4)c1 ? 4.41

So what does the record say about chromatographic logD for COc1ncc(-c2ccc3nc4c(c(N)c3c2)CCCC4)c(OC)n1 ? 1.2

---

endpoint_name: CHI
Reply with just the number.

So what does the record say about CHI for COc1cc(-c2ccc3nc4c(c(N)c3c2)CCCC4)ccn1 ? 25.3

So what does the record say about CHI for Nc1c2c(nc3ccc(-c4ccc(Cl)s4)cc13)CCCC2 ? 37.9

So what does the record say about CHI for Nc1c2c(nc3ccc(-c4cccs4)cc13)CCCC2 ? 29.6

So what does the record say about CHI for Cc1ccc(-c2ccc3nc4c(c(N)c3c2)CCCC4)o1 ? 29.5

So what does the record say about CHI for COc1ncc(-c2ccc3nc4c(c(N)c3c2)CCCC4)c(OC)n1 ? 12.2

So what does the record say about CHI for Nc1c2c(nc3ccc(-c4ccsc4)cc13)CCCC2 ? 29.9

So what does the record say about CHI for Cc1csc(-c2ccc3nc4c(c(N)c3c2)CCCC4)c1 ? 33

So what does the record say about CHI for Nc1c2c(nc3ccc(Oc4ccccc4)cc13)CCCC2 ? 27.6

So what does the record say about CHI for Nc1c2c(nc3ccc(-c4ccc(Cl)nc4)cc13)CCCC2 ? 26

So what does the record say about CHI for CC(C)COc1cccc(-c2ccc3nc4c(c(N)c3c2)CCCC4)c1 ? 38.8

So what does the record say about CHI for Nc1c2c(nc3ccc(-c4ccncc4)cc13)CCCC2 ? 20.2

So what does the record say about CHI for CN(C)c1cccc(-c2ccc3nc4c(c(N)c3c2)CCCC4)c1 ? 31.6

So what does the record say about CHI for Nc1c2c(nc3ccc(-c4ccoc4)cc13)CCCC2 ? 26.2

So what does the record say about CHI for COc1ncc(-c2ccc3nc4c(c(N)c3c2)CCCC4)cn1 ? 19.1

So what does the record say about CHI for Nc1c2c(nc3ccc(-c4cncnc4)cc13)CCCC2 ? 14.7

So what does the record say about CHI for Nc1c2c(nc3ccc(-c4ccc(F)nc4)cc13)CCCC2 ? 23

---

# assay_notes: AUC (0 to 120 mins) in plasma of male Balb/c mouse at 15 mg/kg, ip measured up to 120 mins
# Type: ADME, organism-based
endpoint_name: AUC(0-t) at 2 h (nM·h)
Give the number; nM·h is assumed, so skip it.

So what does the record say about AUC(0-t) at 2 h for Cc1csc(-c2ccc3nc4c(c(N)c3c2)CCCC4)c1 ? 775

---

Task for the reader: assign each of the following compounds its reported Drug metabolism.
# condition_description: human, microsomes, 0.75 h, 3 µM

So what does the record say about Drug metabolism for Nc1c2c(nc3ccc(Oc4ccccc4)cc13)CCCC2 ? 473.1 10^6No_unit

So what does the record say about Drug metabolism for Nc1c2c(nc3ccc(-c4cncnc4)cc13)CCCC2 ? 200.7 10^6No_unit

So what does the record say about Drug metabolism for COc1ccc2nc3c(c(N)c2c1)CCCC3 ? 13.2 10^6No_unit

So what does the record say about Drug metabolism for Cc1ccc(-c2ccc3nc4c(c(N)c3c2)CCCC4)o1 ? 215.5 10^6No_unit

So what does the record say about Drug metabolism for Nc1c2c(nc3ccc(-c4ccncc4)cc13)CCCC2 ? 172.8 10^6No_unit

So what does the record say about Drug metabolism for Cc1csc(-c2ccc3nc4c(c(N)c3c2)CCCC4)c1 ? 207 10^6No_unit

---

# assay_notes: AUC (infinity) in brain of male Balb/c mouse at 15 mg/kg, ip measured up to 120 mins
# Type: ADME, organism-based
endpoint_name: AUC(0-inf) (µM·h)
Give the number; µM·h is assumed, so skip it.

So what does the record say about AUC(0-inf) for Cc1csc(-c2ccc3nc4c(c(N)c3c2)CCCC4)c1 ? 1.96

---

# assay_notes: Cmax in brain of male Balb/c mouse at 15 mg/kg, ip measured up to 120 mins
# Format: ADME, organism-based
endpoint_name: Cmax (nM)
Give the number; nM is assumed, so skip it.

So what does the record say about Cmax for Cc1csc(-c2ccc3nc4c(c(N)c3c2)CCCC4)c1 ? 1470

---

Task for the reader: assign each of the following compounds its reported microsomal CLint at 0.75 h, 3 µM.
# assay_notes: in vitro
# condition_description: human, liver microsomes
Give the number; µL/min/mg is assumed, so skip it.

So what does the record say about microsomal CLint at 0.75 h, 3 µM for COc1ccc2nc3c(c(N)c2c1)CCCC3 ? 42.2

So what does the record say about microsomal CLint at 0.75 h, 3 µM for Nc1c2c(nc3ccc(-c4ccncc4)cc13)CCCC2 ? 46.2

So what does the record say about microsomal CLint at 0.75 h, 3 µM for Nc1c2c(nc3ccc(Oc4ccccc4)cc13)CCCC2 ? 4.2

So what does the record say about microsomal CLint at 0.75 h, 3 µM for Nc1c2c(nc3ccc(-c4cncnc4)cc13)CCCC2 ? 14.8

So what does the record say about microsomal CLint at 0.75 h, 3 µM for Cc1ccc(-c2ccc3nc4c(c(N)c3c2)CCCC4)o1 ? 239

So what does the record say about microsomal CLint at 0.75 h, 3 µM for Cc1csc(-c2ccc3nc4c(c(N)c3c2)CCCC4)c1 ? 224

---

# assay_notes: Tmax in brain of male Balb/c mouse at 15 mg/kg, ip measured up to 120 mins
# Assay type: ADME, organism-based
endpoint_name: Tmax (min)
Give the number; min is assumed, so skip it.

So what does the record say about Tmax for Cc1csc(-c2ccc3nc4c(c(N)c3c2)CCCC4)c1 ? 26.2

---

# assay_notes: AUC (infinity) in plasma of male Balb/c mouse at 15 mg/kg, ip measured up to 120 mins
# Type: ADME, organism-based
endpoint_name: AUC(0-inf) (µM·h)
Give the number; µM·h is assumed, so skip it.

So what does the record say about AUC(0-inf) for Cc1csc(-c2ccc3nc4c(c(N)c3c2)CCCC4)c1 ? 1.08

---

# assay_notes: in vitro
# condition_description: human, liver microsomes
So basically, if half-life at 0.75 h, 3 µM comes in under 6 min it's Criterion met, and if it's 6 min or more it's Criterion not met.

Does the reported half-life at 0.75 h, 3 µM of the following compound sit strictly below 6 min? COc1ccc2nc3c(c(N)c2c1)CCCC3 Criterion not met

Does the reported half-life at 0.75 h, 3 µM of the following compound sit strictly below 6 min? Nc1c2c(nc3ccc(Oc4ccccc4)cc13)CCCC2 Criterion not met

Does the reported half-life at 0.75 h, 3 µM of the following compound sit strictly below 6 min? Nc1c2c(nc3ccc(-c4ccncc4)cc13)CCCC2 Criterion not met

Does the reported half-life at 0.75 h, 3 µM of the following compound sit strictly below 6 min? Cc1ccc(-c2ccc3nc4c(c(N)c3c2)CCCC4)o1 Criterion met

Does the reported half-life at 0.75 h, 3 µM of the following compound sit strictly below 6 min? Cc1csc(-c2ccc3nc4c(c(N)c3c2)CCCC4)c1 Criterion not met

Does the reported half-life at 0.75 h, 3 µM of the following compound sit strictly below 6 min? Nc1c2c(nc3ccc(-c4cncnc4)cc13)CCCC2 Criterion not met

---

Task for the reader: assign each of the following molecules its reported chromatographic logD.
# assay_notes: Lipophilicity, LogD of compound at pH 2.6 by chromatography
# Type: physicochemical
# condition_description: buffer
Reply with just the number.

So what does the record say about chromatographic logD for Nc1c2c(nc3ccc(-c4cncnc4)cc13)CCCC2 ? 0.99

So what does the record say about chromatographic logD for Nc1c2c(nc3ccc(-c4ccc(F)nc4)cc13)CCCC2 ? 1.44

So what does the record say about chromatographic logD for Nc1c2c(nc3ccc(-c4ccc(Cl)s4)cc13)CCCC2 ? 2.28

So what does the record say about chromatographic logD for COc1ncc(-c2ccc3nc4c(c(N)c3c2)CCCC4)cn1 ? 1.26

So what does the record say about chromatographic logD for Nc1c2c(nc3ccc(-c4ccoc4)cc13)CCCC2 ? 1.59

So what does the record say about chromatographic logD for CC(C)COc1cccc(-c2ccc3nc4c(c(N)c3c2)CCCC4)c1 ? 2.87

So what does the record say about chromatographic logD for Cc1ccc(-c2ccc3nc4c(c(N)c3c2)CCCC4)o1 ? 1.94

So what does the record say about chromatographic logD for Nc1c2c(nc3ccc(-c4cccs4)cc13)CCCC2 ? 1.77

So what does the record say about chromatographic logD for CN(C)c1cccc(-c2ccc3nc4c(c(N)c3c2)CCCC4)c1 ? 1.4

So what does the record say about chromatographic logD for Nc1c2c(nc3ccc(Oc4ccccc4)cc13)CCCC2 ? 1.83

So what does the record say about chromatographic logD for Nc1c2c(nc3ccc(-c4ccncc4)cc13)CCCC2 ? 0.47

So what does the record say about chromatographic logD for COc1ncc(-c2ccc3nc4c(c(N)c3c2)CCCC4)c(OC)n1 ? 0.65

So what does the record say about chromatographic logD for Nc1c2c(nc3ccc(-c4ccc(Cl)nc4)cc13)CCCC2 ? 1.6

So what does the record say about chromatographic logD for Cc1csc(-c2ccc3nc4c(c(N)c3c2)CCCC4)c1 ? 2.12

So what does the record say about chromatographic logD for Nc1c2c(nc3ccc(-c4ccsc4)cc13)CCCC2 ? 1.78

So what does the record say about chromatographic logD for COc1cc(-c2ccc3nc4c(c(N)c3c2)CCCC4)ccn1 ? 1.63
